- assay: Resistance index, ratio of IC50 for human Hela-beta3 cells to IC50 for human HeLa cells
- Assay type: functional
parameter.measured: Ratio IC50

Query block: Answer with the recorded Ratio IC50 of `CO/C1=C(\C)[C@@H]([C@]2(OC(C)=O)CO[C@@H]2CCO)[C@H](OC(=O)c2ccccc2)[C@]2(O)C[C@H](OC(=O)[C@H](O)[C@@H](NC(=O)c3ccccc3)c3ccccc3)C(C)=C(C1=O)C2(C)C` only.
Result block: 12.3

Query block: Answer with the recorded Ratio IC50 of `COCC[C@H]1OC[C@@]1(OC(C)=O)[C@@H]1/C(C)=C(/O)C(=O)C2=C(C)[C@@H](OC(=O)[C@H](O)[C@@H](NC(=O)c3ccccc3)c3ccccc3)C[C@@](O)([C@H]1OC(=O)c1ccccc1)C2(C)C` only.
Result block: 7.6

Further cases:
Query block: Answer with the recorded Ratio IC50 of `CC(=O)O[C@@]12CO[C@@H]1CCOCCCCCO/C1=C(\C)[C@@H]2[C@H](OC(=O)c2ccccc2)[C@]2(O)C[C@H](OC(=O)[C@H](O)[C@@H](NC(=O)c3ccccc3)c3ccccc3)C(C)=C(C1=O)C2(C)C` only.
Result block: 6

Query block: Answer with the recorded Ratio IC50 of `CC(=O)O[C@@]12CO[C@@H]1CCOC/C=C/CO/C1=C(\C)[C@@H]2[C@H](OC(=O)c2ccccc2)[C@]2(O)C[C@H](OC(=O)[C@H](O)[C@@H](NC(=O)c3ccccc3)c3ccccc3)C(C)=C(C1=O)C2(C)C` only.
Result block: 7.5

Query block: Answer with the recorded Ratio IC50 of `CC(=O)O[C@@]1([C@@H]2/C(C)=C(/O)C(=O)C3=C(C)[C@@H](OC(=O)[C@H](O)[C@H](CC(C)C)NC(=O)OC(C)(C)C)C[C@@](O)([C@H]2OC(=O)c2cccc(N=[N+]=[N-])c2)C3(C)C)CO[C@@H]1CCO` only.
Result block: 21

Query block: Answer with the recorded Ratio IC50 of `CC(=O)O[C@@]1([C@@H]2/C(C)=C(/O)C(=O)C3=C(C)[C@@H](OC(=O)[C@H](O)[C@@H](NC(=O)c4ccccc4)c4ccccc4)C[C@@](O)([C@H]2OC(=O)c2ccccc2)C3(C)C)CO[C@@H]1CCO` only.
Result block: 15.6

Query block: Answer with the recorded Ratio IC50 of `CC(=O)O[C@@]12CO[C@@H]1CCOC/C=C\CCO/C1=C(\C)[C@@H]2[C@H](OC(=O)c2ccccc2)[C@]2(O)C[C@H](OC(=O)[C@H](O)[C@@H](NC(=O)c3ccccc3)c3ccccc3)C(C)=C(C1=O)C2(C)C` only.
Result block: 5.1

====

- Organism: Bos taurus
- assay: Displacement of Flutax-2 from calf brain microtubule after 20 mins by fluorescence polarization assay relative to paclitaxel
parameter.measured: fold change (FC)
In your answer, state the number alone without any accompanying words.

Query block: Answer with the recorded fold change (FC) of `CC(=O)O[C@@]12CO[C@@H]1CCOCCCCCCO/C1=C(\C)[C@@H]2[C@H](OC(=O)c2ccccc2)[C@]2(O)C[C@H](OC(=O)[C@H](O)[C@@H](NC(=O)c3ccccc3)c3ccccc3)C(C)=C(C1=O)C2(C)C` only.
Result block: 0.61

Query block: Answer with the recorded fold change (FC) of `CC(=O)O[C@@]12CO[C@@H]1CCOC/C=C/CO/C1=C(\C)[C@@H]2[C@H](OC(=O)c2ccccc2)[C@]2(O)C[C@H](OC(=O)[C@H](O)[C@@H](NC(=O)c3ccccc3)c3ccccc3)C(C)=C(C1=O)C2(C)C` only.
Result block: 0.96

The record that follows has no fold change (FC) shown yet.
Query block: Answer with the recorded fold change (FC) of `CC(=O)O[C@@]12CO[C@@H]1CCOCCCCCO/C1=C(\C)[C@@H]2[C@H](OC(=O)c2ccccc2)[C@]2(O)C[C@H](OC(=O)[C@H](O)[C@@H](NC(=O)c3ccccc3)c3ccccc3)C(C)=C(C1=O)C2(C)C` only.
Result block: 1.3

====

- Organism: Bos taurus
- assay: Displacement of Flutax-2 from calf brain microtubule after 20 mins by fluorescence polarization assay relative to paclitaxel
parameter.measured: fold change (FC)
In your answer, state the number alone without any accompanying words.

Query block: Answer with the recorded fold change (FC) of `CC(=O)O[C@@]12CO[C@@H]1CCOC/C=C/CCO/C1=C(\C)[C@@H]2[C@H](OC(=O)c2ccccc2)[C@]2(O)C[C@H](OC(=O)[C@H](O)[C@@H](NC(=O)c3ccccc3)c3ccccc3)C(C)=C(C1=O)C2(C)C` only.
Result block: 0.23

Query block: Answer with the recorded fold change (FC) of `COc1cccc(C(=O)O[C@H]2[C@H]([C@]3(OC(C)=O)CO[C@@H]3CCO)/C(C)=C(/O)C(=O)C3=C(C)[C@@H](OC(=O)[C@H](O)[C@H](CC(C)C)NC(=O)OC(C)(C)C)C[C@]2(O)C3(C)C)c1` only.
Result block: 1.28

Query block: Answer with the recorded fold change (FC) of `CC(=O)O[C@@]1([C@@H]2/C(C)=C(/O)C(=O)C3=C(C)[C@@H](OC(=O)[C@H](O)[C@H](CC(C)C)NC(=O)OC(C)(C)C)C[C@@](O)([C@H]2OC(=O)c2cccc(N=[N+]=[N-])c2)C3(C)C)CO[C@@H]1CCO` only.
Result block: 2.17

The record that follows has no fold change (FC) shown yet.
Query block: Answer with the recorded fold change (FC) of `CC(=O)O[C@@]12CO[C@@H]1CCOCCCCO/C1=C(\C)[C@@H]2[C@H](OC(=O)c2ccccc2)[C@]2(O)C[C@H](OC(=O)[C@H](O)[C@@H](NC(=O)c3ccccc3)c3ccccc3)C(C)=C(C1=O)C2(C)C` only.
Result block: 0.89

====

- assay: Resistance index, ratio of IC50 for human Hela-beta3 cells to IC50 for human HeLa cells
- Format: functional
Parameter: Ratio IC50. Scope: all listed entries.
In your answer, state the number alone without any accompanying words.

Query block: Answer with the recorded Ratio IC50 of `CC(=O)O[C@@]12CO[C@@H]1CCOCCCCO/C1=C(\C)[C@@H]2[C@H](OC(=O)c2ccccc2)[C@]2(O)C[C@H](OC(=O)[C@H](O)[C@@H](NC(=O)c3ccccc3)c3ccccc3)C(C)=C(C1=O)C2(C)C` only.
Result block: 6.9

Query block: Answer with the recorded Ratio IC50 of `CC(=O)O[C@@]1([C@@H]2/C(C)=C(/O)C(=O)C3=C(C)[C@@H](OC(=O)[C@H](O)[C@@H](NC(=O)c4ccccc4)c4ccccc4)C[C@@](O)([C@H]2OC(=O)c2cccc(N=[N+]=[N-])c2)C3(C)C)CO[C@@H]1CCO` only.
Result block: 209

Query block: Answer with the recorded Ratio IC50 of `COc1cccc(C(=O)O[C@H]2[C@H]([C@]3(OC(C)=O)CO[C@@H]3CCO)/C(C)=C(/O)C(=O)C3=C(C)[C@@H](OC(=O)[C@H](O)[C@H](CC(C)C)NC(=O)OC(C)(C)C)C[C@]2(O)C3(C)C)c1` only.
Result block: 33.6

Query block: Answer with the recorded Ratio IC50 of `CC(=O)O[C@@]1([C@@H]2/C(C)=C(/O)C(=O)C3=C(C)[C@@H](OC(=O)[C@H](O)[C@H](CC(C)C)NC(=O)OC(C)(C)C)C[C@@](O)([C@H]2OC(=O)c2ccccc2)C3(C)C)CO[C@@H]1CCO` only.
Result block: 10

Query block: Answer with the recorded Ratio IC50 of `CC(=O)O[C@@]12CO[C@@H]1CCOC/C=C/CCCO/C1=C(\C)[C@@H]2[C@H](OC(=O)c2ccccc2)[C@]2(O)C[C@H](OC(=O)[C@H](O)[C@@H](NC(=O)c3ccccc3)c3ccccc3)C(C)=C(C1=O)C2(C)C` only.
Result block: 2.2

Further cases:
Query block: Answer with the recorded Ratio IC50 of `CC(=O)O[C@@]12CO[C@@H]1CCOC/C=C/CCO/C1=C(\C)[C@@H]2[C@H](OC(=O)c2ccccc2)[C@]2(O)C[C@H](OC(=O)[C@H](O)[C@@H](NC(=O)c3ccccc3)c3ccccc3)C(C)=C(C1=O)C2(C)C` only.
Result block: 5.7

Query block: Answer with the recorded Ratio IC50 of `CC(=O)O[C@@]12CO[C@@H]1CCOC/C=C/CO/C1=C(\C)[C@@H]2[C@H](OC(=O)c2cccc(N=[N+]=[N-])c2)[C@]2(O)C[C@H](OC(=O)[C@H](O)[C@@H](NC(=O)c3ccccc3)c3ccccc3)C(C)=C(C1=O)C2(C)C` only.
Result block: 64

Query block: Answer with the recorded Ratio IC50 of `CC(=O)O[C@@]12CO[C@@H]1CCOCCCCCCO/C1=C(\C)[C@@H]2[C@H](OC(=O)c2ccccc2)[C@]2(O)C[C@H](OC(=O)[C@H](O)[C@@H](NC(=O)c3ccccc3)c3ccccc3)C(C)=C(C1=O)C2(C)C` only.
Result block: 5.3
